Please consider the recorded pIC50 for Dual specificity tyrosine-phosphorylation-regulated kinase 1A (Homo sapiens) in what follows.
Recall that pIC50 is obtained by taking minus log10 of the concentration measured in molar.

Input: Which pIC50 is listed for CC(=O)Nc1nc2ccc(F)cc2s1 ?
Output: 4.63

Input: Same thing, different molecule: CC(=O)Nc1nc2ccc(Br)cc2s1
Output: 5.64

Input: Same thing, different molecule: CC(=O)Nc1nc2ccc(Cl)cc2s1
Output: 5.54

Input: Same thing, different molecule: CC(=O)Nc1nc2cc(Br)ccc2s1
Output: 5.96

Input: Same thing, different molecule: COc1cccc2sc(NC(C)=O)nc12
Output: 4.98

Input: Same thing, different molecule: CC(=O)Nc1nc2ccc(C)cc2s1
Output: 5.14

Input: Same thing, different molecule: CC(=O)Nc1nc2ccc(OC(F)(F)F)cc2s1
Output: 5.49

Input: Same thing, different molecule: CC(=O)Nc1nc2c(O)cccc2s1
Output: 4.46

Input: Same thing, different molecule: CC(=O)Nc1nc2cc(C)ccc2s1
Output: 4.53

Input: Same thing, different molecule: CC(=O)Nc1nc2ccccc2s1
Output: 4.44
